Ref: patent US20090163474A1

- System: Hep3B cells
- Method summary: IL-6 induced CRP secretion in Hep3B cells
- Assay type: cell-based, Human
- Test settings: Homo sapiens, Hep3B, 50 ng/ml IL-6; read-out: IC50 of inhibitory effect on CRP secretion

| Cpd smiles | IC50 (nM) |
| --- | --- |
| CC(C)OC(=O)C1=CN(C(=O)c2ccc(F)c(F)c2)CC(C)(C)c2c1[nH]c1ccccc21 | 220 |
